Target: T1, human TREM2 expressed on cells (human, UniProt Q9NZC2 19-230)
T1 sequence: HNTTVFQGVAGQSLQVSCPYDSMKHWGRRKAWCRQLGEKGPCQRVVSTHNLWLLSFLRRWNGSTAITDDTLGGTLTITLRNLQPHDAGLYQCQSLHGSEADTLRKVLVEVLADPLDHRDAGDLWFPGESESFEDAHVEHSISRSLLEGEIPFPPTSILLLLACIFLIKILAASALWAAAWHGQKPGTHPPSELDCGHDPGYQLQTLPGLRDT
Assay: cell-based or functional assay
# key: entry, value: EC50 viability, dendritic cells D560

[
  {
    "BINDER": "AL2p-37 (antibody, IgG1, V domains shown, Fab and IgG formats under one id; also called AL2p-37 huIgG1) VH: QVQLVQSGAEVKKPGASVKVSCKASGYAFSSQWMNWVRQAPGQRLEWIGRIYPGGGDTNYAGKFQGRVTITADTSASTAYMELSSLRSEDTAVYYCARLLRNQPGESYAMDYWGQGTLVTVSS VL: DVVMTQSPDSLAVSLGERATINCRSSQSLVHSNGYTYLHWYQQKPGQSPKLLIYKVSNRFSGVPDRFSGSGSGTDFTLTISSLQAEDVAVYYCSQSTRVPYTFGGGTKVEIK",
    "EC50 viability, dendritic cells D560 [nM]": 4.47
  },
  {
    "BINDER": "AL2p-47 huIgG1 (antibody, V domains shown) VH: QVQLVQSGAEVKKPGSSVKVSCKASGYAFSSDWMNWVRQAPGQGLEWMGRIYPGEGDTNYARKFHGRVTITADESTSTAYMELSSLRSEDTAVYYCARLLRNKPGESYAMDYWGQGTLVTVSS VL: DVVMTQTPLSLSVTPGQPASISCRTSQSLVHSNAYTYLHWYLQKPGQSPQLLIYKVSNRVSGVPDRFSGSGSGTDFTLKISRVEAEDVGVYYCSQSTRVPYTFGQGTKLEIKR",
    "EC50 viability, dendritic cells D560 [nM]": 0.672
  },
  {
    "BINDER": "AL2p huIgG1 (human mouse chimeric parental antibody) (antibody, V domains shown, Mouse variable region with human IgG1 Fc region; Fab and IgG formats under one id; also called chimeric parental AL2p antibody as huIgG1) VH: QVQLQQSGPELVKPGASLKISCKASGYAFSSSWMNWVKQRPGKGLEWIGRIYPGDGDTNYNGEFRVRATLTADTSSTTAYMQLSSLTSEDSAVYFCARLLRNQPGESYAMDYWGQGASVTVSS VL: DVVMTQTPLSLPVSLGDQASISCRSSQSLVHSNGYTYLHWYLQKPGQSPKLLIYKVSNRFSGVPDRFSGSGSGTDFTLKISRVEADDLGVYFCSQSTRVPYTFGGGTKLEIK",
    "EC50 viability, dendritic cells D560 [nM]": 55.1
  },
  {
    "BINDER": "AL2p-60 (antibody, IgG1, V domains shown) VH: QVQLVQSGAEVKKPGSSVKVSCKASGYAFSSQWMNWVRQAPGQGLEWMGRIYPGEGDTNYARKFQGRVTITADESTSTAYMELSSLRSEDTAVYYCARLLRNQPGESYAMDYWGQGTLVTVSS VL: GVVMTQTPLSLSVTPGQPASISCRSSQSLVHSNQYTYLHWYLQKPGQSPQLLIYKVSNRRSGVPDRFSGSGSGTDFTLKISRVEAEDVGVYYCSQSTRVPYTFGQGTKLEIK",
    "EC50 viability, dendritic cells D560 [nM]": 0.178
  }
]
